test system: NOMO1; experiment: cell viability relative to DMSO control; higher = less cytotoxic; conditions: HPLM + 10% dialyzed FBS; 48 h; 0.0211 µM
Please provide measured cell viability for the entries that follow.
Answers are plain numbers, in %.

{"columns": ["compound", "test.system", "experimental.endpoint", "unit.label", "observed.result"],
 "data": [
  ["Cl.Cl.Fc1ccc(C(OCCN2CCN(CCCc3ccccc3)CC2)c2ccc(F)cc2)cc1", "NOMO1", "cell viability", "%", 125],
  ["COc1cc2c(NC3CCN(C(C)C)CC3)nc(C3CCCCC3)nc2cc1OCCCN1CCCC1", "NOMO1", "cell viability", "%", 118],
  ["CCN(CC)CCOC1=CC=C(NC2=NC=C3\\C=C(/C(=O)N(C)C3=N2)C4=C(Cl)C=CC=C4Cl)C=C1", "NOMO1", "cell viability", "%", 115]
]}

# return cell viability for each item in the list
1. COc1ccc(CCC(=O)Nc2nc3ccc(Cl)cc3s2)cc1OC
2. CCc1cc(/C(C)=N/OCc2ccc(C3CCCCC3)c(C(F)(F)F)c2)ccc1CN1CC(C(=O)O)C1
3. COc1ccc(-c2nc3cc(C4=NNC(=O)CC4C)ccc3[nH]2)cc1 (centres undefined)
4. C[C@H]1CCC/C=C/C2C[C@H](O)C[C@H]2[C@H](O)/C=C/C(=O)O1 (some centres undefined)

Completion:
1: 135; 2: 108; 3: 103; 4: 7.07

###

Field: cell viability. Provide a value for each of the molecules that follow.
test system: NOMO1; assay: cell viability relative to DMSO control; higher = less cytotoxic; settings: HPLM + 10% dialyzed FBS; 48 h; 15.4 µM
Answers are plain numbers, in %.

Below are worked cases with known answers.
{"columns": ["molecule", "unit.label", "cell viability"],
 "data": [
  ["CC1(C)CC(=O)c2c(C(F)(F)F)nn(-c3ccc(C(N)=O)c(NC4CCC(OC(=O)CN)CC4)c3)c2C1 (stereo unspecified)", "%", 17.5],
  ["CN[C@@H](C)C(=O)N[C@H]1CCCC[C@H]2CC[C@@H](C(=O)N[C@@H](c3ccccc3)c3cn(CCCCc4ccc(CCCCn5cc([C@@H](NC(=O)[C@@H]6CC[C@@H]7CCCC[C@H](NC(=O)[C@H](C)NC)C(=O)N76)c6ccccc6)nn5)cc4)nn3)N2C1=O", "%", 27.5]
]}

Required: cell viability, one value per molecule below.
1. NC\1=N\C(=O)N(\C=N1)[C@H]2C[C@H](O)[C@@H](CO)O2
2. Cc1cnc(Nc2ccc(OCCN3CCCC3)cc2)nc1Nc1cccc([S+](=O)([O-])NC(C)(C)C)c1
3. Cn1cc(-c2ccc3ncc(Cc4ccc5ncccc5c4)n3n2)cn1
4. c1cc(OCCN2CCCCC2)cc(-c2n[nH]c3ccc(-c4nc[nH]n4)cc23)c1
5. NC/1=N/C(=O)N(/C=C1)[C@H]2CC[C@@H](CO)O2
6. c1ccc(-c2nn3c(c2-c2ccnc4cc(OCCN5CCOCC5)ccc24)CCC3)nc1

Completion:
1. 46.5
2. 100
3. 105
4. 122
5. 82.2
6. 96.1

Okay, here is my list. What is cell viability for each of these?
1. CCCn1c(=O)c2[nH]c(-c3cnn(Cc4cccc(C(F)(F)F)c4)c3)nc2n(CC)c1=O
2. CC(Oc1ccc(O)cc1)(P(=O)(O)O)P(=O)(O)O
3. CCCn1c(=O)c2[nH]c(C34CC5CC3C[C@@H](C5)C4)nc2n(CCC)c1=O

Completion:
1. 56.4
2. 42.6
3. 99.5

Hi, could you look up cell viability for each item in my list?
1. c1ccc2c(-c3cnn4cc(-c5ccc(N6CCNCC6)cc5)cnc34)ccnc2c1
2. N/C(=N\C(=O)c1nc(Cl)c(N)nc1N)NCc1ccccc1
3. CC1(C)OC/2=C(\[C@H](NCC3=CC=CC=C3)[C@@H]1O)C(=O)C4=CC=CC=C4C2=O

Completion:
1: 111; 2: 76.2; 3: 22.4

Can you give me cell viability for all of these, one by one?
1. CC1(C)O[C@H]2CC(=O)OC[C@]23[C@H]2CC[C@@]4(C)[C@H](c5ccoc5)OC(=O)[C@H]5O[C@]54[C@]2(C)C(=O)C[C@@H]13
2. CCCCCCCCCCCCCCCC(=O)OC[C@@H](NC(=O)C(Cl)Cl)[C@H](O)c1ccc([N+](=O)[O-])cc1

Completion:
103
144
